# Tested on: panel of multidrug-resistant HIV-1 strains
# Run Description: microbe, parasite or virus in culture
# Type: cell-based
# Reported Conditions: Human immunodeficiency virus 1
pEC50: −log10 of the molar value.
Measured Endpoint: pEC50

# input I'd like to know its pEC50. The molecule in question is "COC(=O)N[C@H]1CO[C@@H]2C[C@H](OC(=O)N[C@@H](Cc3ccccc3)[C@H](O)CN(CC(C)C)S(=O)(=O)c3ccc(OC)cc3)C[C@H]12"
# output 7.62 to 7.82

Cited source for all entries: paper PMC3433276
